experiment: acute toxicity; conditions: mouse, in vivo, ip; mice
recorded metric: LD50 (mg/kg)
Answers are plain numbers, in mg/kg.

What value of LD50 has been reported for the following molecule? CCC1C=CC=CCC(C)C(O)C(C)(O)C(=O)C(C)C(O)C(C)C(=O)C(C)C(O)C(C)C=CC(=O)OC2C(C)C(CC1)OC1(OC(CC(C)O)C(C)CC1=O)C2CC (stereo not shown)
1.67

The measured values listed here are drawn from patent EP0322748B1.
